# Test system: Blood
# test_name: Biodistribution in Sprague-Dawley rat blood at 15 uCi, iv after 30 mins
# Format: ADME, organism-based
# experimental_parameters: in vivo, 0.5 h
Entries annotated with measured Drug uptake
recorded_endpoint: Drug uptake (% ID/g)

molecule="CCC(CF)Oc1ccc(COc2cnn(C(C)(C)C)c(=O)c2Cl)cc1 (configuration not stated)" recorded_result=0.18
molecule="CC(F)COc1ccc(COc2cnn(C(C)(C)C)c(=O)c2Cl)cc1 (configuration not stated)" recorded_result=0.09
molecule=CC(C)(C)n1ncc(OCc2ccc(OCCCF)cc2)c(Cl)c1=O recorded_result=0.15
molecule=CC(C)(C)n1ncc(OCc2ccc(CCCCF)cc2)c(Cl)c1=O recorded_result=0.11
molecule="CC(F)CCc1ccc(COc2cnn(C(C)(C)C)c(=O)c2Cl)cc1 (configuration not stated)" recorded_result=0.11
molecule=CC(C)(C)n1ncc(OCc2ccc(COCCF)cc2)c(Cl)c1=O recorded_result=0.11
molecule=[2H]C([2H])(Oc1cnn(C(C)(C)C)c(=O)c1Cl)c1ccc(COC([2H])([2H])C([2H])([2H])F)cc1 recorded_result=0.08
